Tested on: 292921-168-R-J2-PDC complex spheroid growth
Test: Anticancer human tumor 292921-168-R-J2-PDC patient-derived pancreatic carcinoma cell line growth inhibition [AhR]
Conditions: second compound 3.16 µM; first compound 0.0316 µM; stronger effect = lower value
Note to self: use 1 (yes) only for viability, T/C readings below 50%; a reading exactly at 50% still gets 0 (no).

Before answering, review these 4 worked examples.
{"columns": ["molecule", "label"],
 "data": [
  ["Nc1ccn(C2OC(CO)C(O)C2(F)F)c(=O)n1 (stereo not given) + CC(CO)NC(=O)c1cc(-c2ccc(Cl)cc2)nn(-c2cnn(C)c2)c1=O", "1 (yes)"],
  ["NS(=O)(=O)OCC1CC(n2ccc3c(NC4CCc5ccccc54)ncnc32)CC1O (stereo not given) + CC(CO)NC(=O)c1cc(-c2ccc(Cl)cc2)nn(-c2cnn(C)c2)c1=O", "0 (no)"],
  ["Nc1ccn(C2OC(CO)C(O)C2(F)F)c(=O)n1 (stereo not given) + Cc1ccccc1N=Nc1ccc(NC(=O)c2ccnn2C)c(C)c1", "1 (yes)"],
  ["COc1ccc([C@@H](O)c2cc(-c3ncnc4cc(N5CCOCC5)ccc34)c(F)cc2Cl)nn1 + CC(CO)NC(=O)c1cc(-c2ccc(Cl)cc2)nn(-c2cnn(C)c2)c1=O", "0 (no)"]
]}

Is the reported viability, T/C for COc1ccc([C@@H](O)c2cc(-c3ncnc4cc(N5CCOCC5)ccc34)c(F)cc2Cl)nn1 + Cc1ccccc1N=Nc1ccc(NC(=O)c2ccnn2C)c(C)c1 strictly below 50%?
0 (no)

Is the reported viability, T/C for Nc1ccccc1NC(=O)c1ccc(CNC(=O)OCc2cccnc2)cc1 + Cc1ccccc1N=Nc1ccc(NC(=O)c2ccnn2C)c(C)c1 strictly below 50%?
0 (no)

Is the reported viability, T/C for Nc1ncn(C2CC(O)C(CO)O2)c(=O)n1 (stereo not given) + CC(CO)NC(=O)c1cc(-c2ccc(Cl)cc2)nn(-c2cnn(C)c2)c1=O strictly below 50%?
0 (no)

Is the reported viability, T/C for COc1cc(C2c3cc4c(cc3C(OC3OC5COC(C)OC5C(O)C3O)C3COC(=O)C23)OCO4)cc(OC)c1O (stereo not given) + Cc1ccccc1N=Nc1ccc(NC(=O)c2ccnn2C)c(C)c1 strictly below 50%?
0 (no)

---

// reported viability, T/C per item
Tested on: 292921-168-R-J2-PDC complex spheroid growth
Test: Anticancer human tumor 292921-168-R-J2-PDC cell line growth inhibition [AhR];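 note: spheroids exposed to compounds for seven days after three days of growth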
Details: second compound 0.316 µM; first compound 0.000316 µM; stronger effect = lower value
Excerpt: Multicellular complex tumor spheroid response to aryl hydrocarbon receptor antagonists in combination with a variety of drugs and investigational agents in selected tumor cell lines […] Compounds. […] If the clinical Cmax for an agent had not been determined, the highest concentration tested was 10 microM (Table 1). […]
Number in %, nothing else.

Record request: viability, T/C value, item CC[C@@]1(O)C(=O)OCc2c1cc1n(c2=O)Cc2cc3c(CN(C)C)c(O)ccc3nc2-1 + Cc1cncc(-c2nc(NCCc3c[nH]c4ccccc34)c3ncn(C(C)C)c3n2)c1
89.1

Record request: viability, T/C value, item Cn1ncnc1C1c2n[nH]c(=O)c3cc(F)cc(c23)NC1c1ccc(F)cc1 (stereo not drawn) + Cc1ccccc1N=Nc1ccc(NC(=O)c2ccnn2C)c(C)c1
90.9

Record request: viability, T/C value, item Cn1ncnc1C1c2n[nH]c(=O)c3cc(F)cc(c23)NC1c1ccc(F)cc1 (stereo not drawn) + Cc1cncc(-c2nc(NCCc3c[nH]c4ccccc34)c3ncn(C(C)C)c3n2)c1
91.4
